procedure_summary: Inhibition of HIV1 3B reverse transcriptase activity infected in human H9 cells assessed as level of p24 antigen
observation_type: IC50 (nM)

CC1(C)O[C@H]2CC(=O)OC[C@]23[C@H]2CC[C@@]4(C)[C@H](c5ccoc5)OC(=O)[C@H]5O[C@]54[C@]2(C)C(=O)C[C@@H]13
4.48

Hello, the source for this data is BindingDB's records for doi:10.1016/j.bmc.2011.01.024, in case you need it.
